The following compounds are listed with their measured T/C values.
# System: CD2F1 mice, L1210 leukemia ip, survival T/C
# measurementNotes: NCI In Vivo Anticancer Drug Screen. Data for tumor model L1210 Leukemia (intraperitoneal) in CD2F1 (CDF1) mice
# details: endpoint: mean survival time; dose: 12.5 mg/kg/injection; schedule: Q01DX009 (ip); vehicle: water; higher = longer survival
Toxic doses and inconclusive results are not listed.

A selection of reference data follows.
compound	T/C
O=C1CCC(C(=O)O)=NN1	96 % of control
CC1=C(c2ccccc2)OS(=O)(=O)NC1=O	93 % of control
CC(C)(CCC(C)(C)NCCCN)NCCCN	94 % of control

API: the following record is the query input.
// query Give reported T/C for CN(C)C=NC1=NN(C)c2ncnc3c2c1cn3C1OC(CO)C(O)C1O (centres undefined) (CD2F1 mice, L1210 leukemia ip, survival T/C)
// result 101 % of control

----------
The following molecules are listed with their measured T/C values.
# System: CD2F1 mice, L1210 leukemia ip, survival T/C
# measurementNotes: NCI In Vivo Anticancer Drug Screen. Data for tumor model L1210 Leukemia (intraperitoneal) in CD2F1 (CDF1) mice
# details: endpoint: mean survival time; dose: 400.0 mg/kg/injection; schedule: Q01DX009 (ip); vehicle: Klucel (hydroxypropylcellulose) (HPC); higher = longer survival
Toxic doses and inconclusive results are not listed.

A selection of reference data follows.
molecule	T/C
Cc1ccc(NC(=O)Oc2cc(C)c(Cl)cc2C)c([N+](=O)[O-])c1	92 % of control
COc1ccc(OC)c(NC(=O)Oc2cccc(NC(C)=O)c2)c1	102 % of control
Cc1cc(N2C(=O)CCSC2=S)ccc1Cl	102 % of control
CC1(C)CC(C)(OC(=O)c2ccccc2)[N+]([O-])=N1 (stereo unspecified)	98 % of control
C(=Nc1cccc2ccccc12)c1ccc2c(c1)OCO2	96 % of control

API: the following record is the query input.
// query Assign T/C to the following record: "O=C(OC(=O)c1cccc(-c2ccccc2)c1)c1cccc(-c2ccccc2)c1"
// result 97 % of control

----------
# Tested on: CD2F1 mice, L1210 leukemia ip, survival T/C
# measurementNotes: NCI In Vivo Anticancer Drug Screen. Data for tumor model L1210 Leukemia (intraperitoneal) in CD2F1 (CDF1) mice
# details: endpoint: mean survival time; dose: 100.0 mg/kg/injection; schedule: Q04DX003 (ip); vehicle: Klucel (hydroxypropylcellulose) (HPC); higher = longer survival
Inconclusive results and toxic doses are left out.
endpointName: T/C

A selection of reference data follows.
compound	T/C
CC12CCC(=O)C=C1CCC1C2CCC2(C)C1CCC2(O)C(=O)Cn1c(=O)[nH]cc(F)c1=O (stereo unspecified)	100 % of control
O=S(=O)(Cl)c1ccc(-c2ccc(S(=O)(=O)Cl)cc2)cc1	95 % of control
Nc1ncnc2nc(-c3ccc(C(=O)c4cccc([N+](=O)[O-])c4)cc3)[nH]c12	108 % of control
O=C(c1ccccc1)C1(Br)CCCCC1	101 % of control
CCC(Cl)[N+](=O)[O-] (stereo unspecified)	107 % of control

// query Give reported T/C for N#CC1c2ccccc2C=CN1C(=O)OCC(Cl)(Cl)Cl (stereo unspecified) (CD2F1 mice, L1210 leukemia ip, survival T/C)
// result 102 % of control

----------
# Tested on: CD2F1 mice, L1210 leukemia ip, survival T/C
# measurementNotes: NCI In Vivo Anticancer Drug Screen. Data for tumor model L1210 Leukemia (intraperitoneal) in CD2F1 (CDF1) mice
# details: endpoint: mean survival time; dose: 100.0 mg/kg/injection; schedule: Q04DX002 (ip); vehicle: saline with Tween-80; higher = longer survival
Toxic doses and inconclusive results are not listed.
endpointName: T/C

A selection of reference data follows.
compound	targetUnderTest	T/C
ClC1(Cl)C2CCCCCCC21 (configuration not stated)	CD2F1 mice, L1210 leukemia ip, survival T/C	91 % of control
COc1ccccc1NC(=O)Oc1c(C)cccc1C	CD2F1 mice, L1210 leukemia ip, survival T/C	92 % of control
Nc1nc2c(ncn2-c2cccc(NC(=O)c3cccc(S(=O)(=O)F)c3)c2)c(=O)[nH]1	CD2F1 mice, L1210 leukemia ip, survival T/C	94 % of control
CCCCS/C=C\C(=O)OCC	CD2F1 mice, L1210 leukemia ip, survival T/C	102 % of control
CCCCCCCCCSCCOC(=S)N(C)C	CD2F1 mice, L1210 leukemia ip, survival T/C	93 % of control

// query Assign T/C to the following record: CC1CC(C)(C)OC(C(C)C)O1 (configuration not stated)
// result 96 % of control

// query Assign T/C to the following record: CN1C(=O)C=CC1=O (tested in a mixture with another compound)
// result 95 % of control

// query Assign T/C to the following record: OC1CCCCC(O)CCCC1 (configuration not stated)
// result 95 % of control

// query Assign T/C to the following record: "COc1ccc(NC(=O)CCl)c(OC)c1"
// result 108 % of control

// query Assign T/C to the following record: "CCCCCCCC/C=C\CCCCCCCC(=O)OCCCCCCCC"
// result 95 % of control

// query Assign T/C to the following record: CC1=C(C2=C(C)C([N+](=O)[O-])(C(C)(C)C)C=C(C(C)(C)C)C2=O)C(=O)C(C(C)(C)C)=CC1([N+](=O)[O-])C(C)(C)C (configuration not stated)
// result 90 % of control

// query Assign T/C to the following record: "CN(C)c1ccc(/C=C2N=C(/C=C\c3ccccc3)OC\2=O)cc1"
// result 98 % of control

----------
# System: CD2F1 mice, L1210 leukemia ip, survival T/C
# measurementNotes: NCI In Vivo Anticancer Drug Screen. Data for tumor model L1210 Leukemia (intraperitoneal) in CD2F1 (CDF1) mice
# details: endpoint: mean survival time; dose: 200.0 mg/kg/injection; schedule: Q04DX002 (ip); vehicle: saline with Tween-80; higher = longer survival
Inconclusive results and toxic doses are left out.
The following compounds are listed with their measured T/C values.

// query Give reported T/C for "O=C(O)c1cccc2c1oc1ccccc12" (CD2F1 mice, L1210 leukemia ip, survival T/C)
// result 94 % of control

// query Give reported T/C for "CC(C)(C)c1ccc(-c2ccncc2)cc1" (CD2F1 mice, L1210 leukemia ip, survival T/C)
// result 105 % of control

// query Give reported T/C for COc1ccc2c(c1)CCC1C2=CC2=NNC(=O)C2C1c1ccccc1 (stereo not drawn) (CD2F1 mice, L1210 leukemia ip, survival T/C)
// result 92 % of control

// query Give reported T/C for "O=C(c1ccccc1)N(C(=O)c1ccccc1)c1cccc(N(C(=O)c2ccccc2)C(=O)c2ccccc2)n1" (CD2F1 mice, L1210 leukemia ip, survival T/C)
// result 93 % of control

// query Give reported T/C for "CCOC(=O)Cc1nc2ccccc2[nH]1" (CD2F1 mice, L1210 leukemia ip, survival T/C)
// result 93 % of control

----------
The following compounds are listed with their measured T/C values.
# Tested on: CD2F1 mice, L1210 leukemia ip, survival T/C
# measurementNotes: NCI In Vivo Anticancer Drug Screen. Data for tumor model L1210 Leukemia (intraperitoneal) in CD2F1 (CDF1) mice
# details: endpoint: mean survival time; dose: 75.0 mg/kg/injection; schedule: Q01DX001 (ip); vehicle: saline; higher = longer survival
# Description: The antitumor activity of compounds was measured in mice bearing transplantable tumors. Survival or tumor size were measured and the results are expressed as the measurement made in the treated group (T) divided by the measurement made in the vehicle treated control group (C). The tumor model used in this assay is L1210 Leukemia (intraperitoneal) in CD2F1 (CDF1) mice
Inconclusive results and toxic doses are left out.

A selection of reference data follows.
C/C=C(\C(=C\C)c1ccc(OC(=O)c2ccccc2)c(C2CCCCC2)c1)c1ccc(O)c(C2CCCCC2)c1 95 % of control
CCOC(=O)/N=c1\ccccn1O 101 % of control
CN(C)CCC(C#N)(c1ccccc1)c1ccccc1 102 % of control
CCCCCCCCCC(=O)N(C)C 98 % of control
CC1(C)N=C(N)N=C(N)N1c1cccc(C#N)c1 104 % of control

API: the following record is the query input.
// query Assign T/C to the following record: "CCN(CC)Cc1cc([N+](=O)[O-])ccc1O"
// result 104 % of control

----------
# Test system: CD2F1 mice, L1210 leukemia ip, survival T/C
# measurementNotes: NCI In Vivo Anticancer Drug Screen. Data for tumor model L1210 Leukemia (intraperitoneal) in CD2F1 (CDF1) mice
# details: endpoint: mean survival time; dose: 100.0 mg/kg/injection; schedule: Q01DX009 (ip); vehicle: saline with Tween-80; higher = longer survival
Inconclusive results and toxic doses are left out.
The following molecules are listed with their measured T/C values.

A selection of reference data follows.
molecule	targetUnderTest	T/C
Nc1c([N+](=O)[O-])ccc2ccccc12	CD2F1 mice, L1210 leukemia ip, survival T/C	95 % of control
O=C(O)c1cc2c(Cl)cccc2[nH]1	CD2F1 mice, L1210 leukemia ip, survival T/C	94 % of control
CN/N=C/c1ccc(O)c(OC)c1	CD2F1 mice, L1210 leukemia ip, survival T/C	91 % of control
O=C(O)/C=C/C(=O)NNC(=O)/C=C/C(=O)O	CD2F1 mice, L1210 leukemia ip, survival T/C	96 % of control
C#CCN(CC#C)C(=O)CCCCCCCCC=C	CD2F1 mice, L1210 leukemia ip, survival T/C	90 % of control

// query Assign T/C to the following record: COC(CCC#N)c1ccc(Cl)cc1 (configuration not stated)
// result 95 % of control

// query Assign T/C to the following record: "CCCCCCCCCCCCCCCCCCNC(=O)Nc1ccc(CC)cc1"
// result 98 % of control
